# study.system: GORASP1, Q9BQQ3
# Sequence (Q9BQQ3 1-208): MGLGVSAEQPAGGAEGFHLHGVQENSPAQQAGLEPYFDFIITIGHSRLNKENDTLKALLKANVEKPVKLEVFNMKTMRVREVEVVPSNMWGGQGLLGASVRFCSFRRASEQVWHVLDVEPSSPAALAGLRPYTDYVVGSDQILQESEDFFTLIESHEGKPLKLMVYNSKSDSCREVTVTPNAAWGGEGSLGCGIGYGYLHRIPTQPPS
# test.description: holdup assay
# Design: key: below the threshold = too weak to quantify, mostly under pKd 3.1 to 4
# assay.context: plain residues with an end cap or a label only (N-terminal biotin on a linker: ahx)
observation.type: pKd

Completed entries (count: 8):
binder	observation.type	measured.result
TVICWPGSLV [LNX2, Q8N448]	pKd	3.58
HNAFLSVTTV [PDZRN4, Q6ZMN7]	pKd	below the threshold
LSDPSVSTVV [GRIN1, Q05586;Q05586-2]	pKd	below the threshold
RAVEEEESRF [PSCDBP, O60759]	pKd	below the threshold
NRKREIFSNF [NHERF2, Q15599]	pKd	below the threshold
SDSSGQEYSL [KCTD3, Q9Y597]	pKd	below the threshold
PSASCAVTAA [PDLIM4, P50479;P50479-2]	pKd	below the threshold
ESLLLGPSNF [SHROOM4, Q9ULL8]	pKd	below the threshold

Requested read-out: pKd. Entry: GYDWGPATDL [TJP3, O95049]
below the threshold

Now try RRRKRKRTYL [HPV49-L2, P36762] .
4.65
